# System: A549 cells
# Type: cell-based
# assay setup: 72 h incubation; mean ± SD of two or three independent experiments; read-out: metabolic activity IC50, A549
parameter measured: pIC50
Lab note: report pIC50 as minus log10 of the concentration in molar units, number only.

Exam item: Record request: pIC50 value, item CC(=O)OC[C@H]1O[C@@H]([S-])[C@H](OC(C)=O)[C@@H](OC(C)=O)[C@@H]1OC(C)=O.CCP(CC)CC.[Au+] [Auranofin, reference compound]
Marked response: 5.37

Exam item: Record request: pIC50 value, item N.N.[Cl][Pt][Cl] [Cisplatin, reference compound]
Marked response: 5.18

Exam item: Record request: pIC50 value, item `CCn1c(-c2ccccc2)c(-c2ccccc2)n(CC)[c]1=[Au+]([Br])([Br])=[c]1n(CC)c(-c2ccccc2)c(-c2ccccc2)n1CC.F[P-](F)(F)(F)(F)F`
Marked response: 6.70

Exam item: Record request: pIC50 value, item `CCn1c(-c2ccccc2)c(-c2ccccc2)n(CC)[c]1=[Au+]([Cl])([Cl])=[c]1n(CC)c(-c2ccccc2)c(-c2ccccc2)n1CC.F[P-](F)(F)(F)(F)F`
Marked response: 6.74

Source listed as paper PMC10291549.
